Where do these numbers come from? They come from ChEMBL document CHEMBL1141025.

# TESTED_ON: Retinoic acid receptor RXR-beta (Homo sapiens, UniProt P28702)
# Sequence (P28702 whole entry): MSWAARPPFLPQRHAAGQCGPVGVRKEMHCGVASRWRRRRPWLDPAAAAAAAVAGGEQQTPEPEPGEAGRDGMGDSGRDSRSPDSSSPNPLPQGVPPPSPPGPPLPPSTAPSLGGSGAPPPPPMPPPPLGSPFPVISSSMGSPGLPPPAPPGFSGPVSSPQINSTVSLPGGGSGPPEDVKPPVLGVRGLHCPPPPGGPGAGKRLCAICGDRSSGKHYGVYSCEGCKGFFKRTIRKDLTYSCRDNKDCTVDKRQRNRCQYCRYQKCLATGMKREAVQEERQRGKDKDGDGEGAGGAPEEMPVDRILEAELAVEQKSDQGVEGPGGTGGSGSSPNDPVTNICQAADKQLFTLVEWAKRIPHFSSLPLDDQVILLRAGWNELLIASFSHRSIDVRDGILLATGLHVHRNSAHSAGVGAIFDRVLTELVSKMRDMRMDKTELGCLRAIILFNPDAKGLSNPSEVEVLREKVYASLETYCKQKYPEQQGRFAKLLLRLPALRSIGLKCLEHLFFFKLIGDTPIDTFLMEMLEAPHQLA
# ASSAY_METHOD_TEXT: Antagonist activity at RXRbeta expressed in african green monkey COS1 cells assessed as inhibition of LGD-1069-induced agonist activity
REPORTED_METRIC: IC50

These solved cases illustrate the format of a correct answer.
SMILES_TEXT: CC1(C)CCC(C)(C)c2cc(N(c3ccc(C(=O)O)cn3)S(=O)(=O)c3ccc(C(F)(F)F)cc3)ccc21
TESTED_ON: Retinoic acid receptor RXR-beta (Homo sapiens, UniProt P28702)
IC50: 0.75 µM
--
SMILES_TEXT: COc1ccc(S(=O)(=O)N(c2ccc3c(c2)C(C)(C)CCC3(C)C)c2ccc(C(=O)O)cn2)cc1
TESTED_ON: Retinoic acid receptor RXR-beta (Homo sapiens, UniProt P28702)
IC50: 3.9 µM
--
SMILES_TEXT: CC1(C)CCC(C)(C)c2cc(N(c3ccc(C(=O)O)cn3)S(=O)(=O)c3ccc([N+](=O)[O-])cc3)ccc21
TESTED_ON: Retinoic acid receptor RXR-beta (Homo sapiens, UniProt P28702)
IC50: > 10 µM
--
SMILES_TEXT: CCCCS(=O)(=O)N(c1ccc2c(c1)C(C)(C)CCC2(C)C)c1ccc(C(=O)O)cn1
TESTED_ON: Retinoic acid receptor RXR-beta (Homo sapiens, UniProt P28702)
IC50: > 10 µM
--
SMILES_TEXT: CC1(C)CCC(C)(C)c2cc(N(c3ccc(C(=O)O)cn3)S(=O)(=O)c3ccccc3)ccc21
TESTED_ON: Retinoic acid receptor RXR-beta (Homo sapiens, UniProt P28702)
IC50: > 10 µM

Incoming: Entry "Cc1ccc(S(=O)(=O)N(c2ccc3c(c2)C(C)(C)CCC3(C)C)c2ccc(C(=O)O)cn2)cc1" : reported IC50 = ?
Outgoing: 3 µM

Incoming: Entry "CN1c2ccc([N+](=O)[O-])cc2N=C(c2ccc(C(=O)O)cc2)c2cc3c(cc21)C(C)(C)CCC3(C)C" : reported IC50 = ?
Outgoing: 0.044 µM

Incoming: Entry "CC1(C)CCC(C)(C)c2cc(N(c3ccc(C(=O)O)cn3)S(=O)(=O)c3ccc(Cl)cc3)ccc21" : reported IC50 = ?
Outgoing: 0.87 µM

----------
# TESTED_ON: Retinoic acid receptor RXR-gamma (Homo sapiens, UniProt P48443)
# Sequence (P48443 whole entry): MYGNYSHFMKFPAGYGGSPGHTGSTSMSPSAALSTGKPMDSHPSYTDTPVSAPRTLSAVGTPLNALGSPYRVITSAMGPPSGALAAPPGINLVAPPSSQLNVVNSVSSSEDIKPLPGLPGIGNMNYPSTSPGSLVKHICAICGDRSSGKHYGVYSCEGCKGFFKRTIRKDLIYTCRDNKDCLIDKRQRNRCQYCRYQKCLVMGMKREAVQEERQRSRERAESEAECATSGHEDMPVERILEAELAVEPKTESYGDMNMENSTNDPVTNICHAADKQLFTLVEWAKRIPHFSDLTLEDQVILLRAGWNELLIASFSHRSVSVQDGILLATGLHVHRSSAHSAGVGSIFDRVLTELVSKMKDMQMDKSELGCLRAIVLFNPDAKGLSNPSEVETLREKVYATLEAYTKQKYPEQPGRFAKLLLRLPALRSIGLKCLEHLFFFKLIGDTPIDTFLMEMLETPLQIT
# ASSAY_METHOD_TEXT: Antagonist activity at RXRgamma expressed in african green monkey COS1 cells assessed as inhibition of LGD-1069-induced agonist activity
Recorded measurements of IC50, one per entry
Expressed in µM, but write only the number.

These solved cases illustrate the format of a correct answer.
SMILES_TEXT: CC1(C)CCC(C)(C)c2cc(N(c3ccc(C(=O)O)cn3)S(=O)(=O)c3ccc(Cl)cc3)ccc21
MEAS_VALUE: 4.5

SMILES_TEXT: Cc1ccc(S(=O)(=O)N(c2ccc3c(c2)C(C)(C)CCC3(C)C)c2ccc(C(=O)O)cn2)cc1
MEAS_VALUE: 3.8

SMILES_TEXT: COc1ccc(S(=O)(=O)N(c2ccc3c(c2)C(C)(C)CCC3(C)C)c2ccc(C(=O)O)cn2)cc1
MEAS_VALUE: 6.6

SMILES_TEXT: CN1c2ccc([N+](=O)[O-])cc2N=C(c2ccc(C(=O)O)cc2)c2cc3c(cc21)C(C)(C)CCC3(C)C
MEAS_VALUE: 0.38

Incoming: Entry "CC1(C)CCC(C)(C)c2cc(N(c3ccc(C(=O)O)cn3)S(=O)(=O)c3ccc(C(F)(F)F)cc3)ccc21" : reported IC50 = ?
Outgoing: 2.7
